Conditions: in dichloromethane, 305 K
measured endpoint: solubility (mole fraction)

INSERT INTO results (smiles_structure, observed_value) VALUES
  ('CO[C@H]1C[C@@H]2CC[C@@H](C)[C@@](O)(O2)C(=O)C(=O)N2CCCC[C@H]2C(=O)O[C@H]([C@H](C)C[C@@H]2CC[C@@H](O)[C@H](OC)C2)CC(=O)[C@H](C)/C=C(\C)[C@@H](O)[C@@H](OC)C(=O)[C@H](C)C[C@H](C)/C=C/C=C/C=C/1C', 0.0022);

---

Conditions: in acetone, 325 K
measured endpoint: solubility (mole fraction)

INSERT INTO measurements (smiles_structure, observed_value) VALUES
  ('CO[C@H]1C[C@@H]2CC[C@@H](C)[C@@](O)(O2)C(=O)C(=O)N2CCCC[C@H]2C(=O)O[C@H]([C@H](C)C[C@@H]2CC[C@@H](O)[C@H](OC)C2)CC(=O)[C@H](C)/C=C(\C)[C@@H](O)[C@@H](OC)C(=O)[C@H](C)C[C@H](C)/C=C/C=C/C=C/1C', 0.00487);
